Reported Activity values for the following molecules.
System: Estrogen receptor (Homo sapiens)
Sequence (P03372 whole entry): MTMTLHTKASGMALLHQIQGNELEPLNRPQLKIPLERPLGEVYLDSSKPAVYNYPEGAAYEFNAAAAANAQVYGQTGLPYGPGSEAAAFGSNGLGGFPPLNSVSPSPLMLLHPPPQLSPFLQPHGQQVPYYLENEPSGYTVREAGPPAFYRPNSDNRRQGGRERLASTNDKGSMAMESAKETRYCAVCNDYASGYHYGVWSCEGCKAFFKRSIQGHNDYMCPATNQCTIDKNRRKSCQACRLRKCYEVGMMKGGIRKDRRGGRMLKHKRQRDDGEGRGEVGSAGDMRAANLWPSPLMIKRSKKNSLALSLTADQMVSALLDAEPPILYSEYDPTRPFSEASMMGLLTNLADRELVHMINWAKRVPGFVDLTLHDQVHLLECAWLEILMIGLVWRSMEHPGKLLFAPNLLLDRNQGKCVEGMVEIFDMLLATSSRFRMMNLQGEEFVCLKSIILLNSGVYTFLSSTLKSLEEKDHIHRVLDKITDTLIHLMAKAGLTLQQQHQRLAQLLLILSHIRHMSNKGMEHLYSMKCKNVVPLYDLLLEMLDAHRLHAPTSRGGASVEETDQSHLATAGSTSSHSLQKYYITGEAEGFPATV
Protocol Text: Agonist activity at human ERalpha expressed in HepG2 cells up to 10^-5 M after 24 hrs by luciferase reporter gene assay relative to E2
Assay type: functional, cell-based
Parameter: Activity (%)

>  <Molecule>
COc1ccc(OS(=O)(=O)[C@H]2C[C@H]3C(c4ccc(O)c(C)c4)=C(c4ccc(O)c(C)c4)[C@@H]2[S+]3[O-])cc1 (relative stereo)

>  <Parameter>
Activity

>  <Measured Result>
57

$$$$
>  <Molecule>
Cc1cc(O)ccc1C1=C(c2ccc(O)cc2C)[C@H]2[C@@H](S(=O)(=O)Oc3ccccc3Cl)C[C@@H]1[S+]2[O-] (relative stereo)

>  <Parameter>
Activity

>  <Measured Result>
73

$$$$
>  <Molecule>
O=S(=O)(Oc1ccccc1)[C@H]1C[C@H]2C(c3ccc(O)cc3)=C(c3ccc(O)cc3)[C@@H]1[S+]2[O-] (relative stereo)

>  <Parameter>
Activity

>  <Measured Result>
85

$$$$
>  <Molecule>
Cc1cc(O)ccc1C1=C(c2ccc(O)cc2C)[C@H]2[C@@H](S(=O)(=O)Oc3ccccc3F)C[C@@H]1[S+]2[O-] (relative stereo)

>  <Parameter>
Activity

>  <Measured Result>
56

$$$$
>  <Molecule>
COc1ccc(OS(=O)(=O)[C@H]2C[C@H]3C(c4ccc(O)cc4)=C(c4ccc(O)cc4)[C@@H]2[S+]3[O-])cc1 (relative stereo)

>  <Parameter>
Activity

>  <Measured Result>
48

$$$$

###

Reported RBA values follow for various compounds
System: Estrogen receptor (Homo sapiens)
Protocol Text: Displacement of [3H]estradiol from human ERalpha after 18 to 24 hrs

>  <Compound>
Cc1cc(O)ccc1C1=C(c2ccc(O)cc2C)[C@H]2[C@@H](S(=O)(=O)Oc3cccc(Cl)c3)C[C@@H]1[S+]2[O-] (relative stereo)

>  <System>
Estrogen receptor (Homo sapiens)

>  <RBA (%)>
1.3

$$$$
>  <Compound>
Cc1cc(O)ccc1C1=C(c2ccc(O)cc2C)[C@H]2[C@@H](S(=O)(=O)Oc3ccc(F)cc3)C[C@@H]1[S+]2[O-] (relative stereo)

>  <System>
Estrogen receptor (Homo sapiens)

>  <RBA (%)>
2.18

$$$$
>  <Compound>
COc1ccc(OS(=O)(=O)[C@H]2C[C@H]3C(c4ccc(O)c(C)c4)=C(c4ccc(O)c(C)c4)[C@@H]2[S+]3[O-])cc1 (relative stereo)

>  <System>
Estrogen receptor (Homo sapiens)

>  <RBA (%)>
0.31

$$$$

###

System: Estrogen receptor beta (Homo sapiens)
Protocol Text: Displacement of [3H]estradiol from human ERbeta after 18 to 24 hrs
Parameter: RBA (%)

>  <Compound>
CCOC(=O)[C@@H]1[C@H](C(=O)OCC)[C@@H]2C(c3ccc(O)cc3)=C(c3ccc(O)cc3)[C@H]1[S+]2[O-] (some centres not stated)

>  <System>
Estrogen receptor beta (Homo sapiens)

>  <Measured Result>
0.048

$$$$
>  <Compound>
Cc1cc(O)ccc1C1=C(c2ccc(O)cc2C)[C@H]2[C@@H](S(=O)(=O)Oc3cccc(Cl)c3)C[C@@H]1[S+]2[O-] (relative stereo)

>  <System>
Estrogen receptor beta (Homo sapiens)

>  <Measured Result>
0.088

$$$$
>  <Compound>
Cc1cc(O)ccc1C1=C(c2ccc(O)cc2C)[C@H]2[C@@H](S(=O)(=O)Oc3ccc(F)cc3)C[C@@H]1[S+]2[O-] (relative stereo)

>  <System>
Estrogen receptor beta (Homo sapiens)

>  <Measured Result>
0.08

$$$$
>  <Compound>
Cc1cc(O)ccc1C1=C(c2ccc(O)cc2C)[C@H]2[C@@H](S(=O)(=O)Oc3ccccc3)C[C@@H]1[S+]2[O-] (relative stereo)

>  <System>
Estrogen receptor beta (Homo sapiens)

>  <Measured Result>
0.348

$$$$
>  <Compound>
O=S(=O)(Oc1ccccc1)[C@H]1C[C@H]2C(c3ccc(O)cc3)=C(c3ccc(O)cc3)[C@@H]1[S+]2[O-] (relative stereo)

>  <System>
Estrogen receptor beta (Homo sapiens)

>  <Measured Result>
0.11

$$$$
>  <Compound>
Cc1cc(C2=C(c3ccc(O)c(C)c3)[C@H]3[C@@H](S(=O)(=O)Oc4ccccc4Br)C[C@@H]2[S+]3[O-])ccc1O (relative stereo)

>  <System>
Estrogen receptor beta (Homo sapiens)

>  <Measured Result>
0.014

$$$$
>  <Compound>
COc1ccc(OS(=O)(=O)[C@H]2C[C@H]3C(c4ccc(O)cc4C)=C(c4ccc(O)cc4C)[C@@H]2[S+]3[O-])cc1 (relative stereo)

>  <System>
Estrogen receptor beta (Homo sapiens)

>  <Measured Result>
0.091

$$$$

###

System: UniProt P03372
Quick reference: EC50 of the listed items.
Parameter: EC50

>  <Molecule>
Cc1cc(C2=C(c3ccc(O)c(C)c3)[C@H]3[C@@H](S(=O)(=O)Oc4cccc5ccccc45)C[C@@H]2[S+]3[O-])ccc1O (relative stereo)

>  <System>
UniProt P03372

>  <Measured Result>
0.77 µM

$$$$
>  <Molecule>
Cc1cc(C2=C(c3ccc(O)c(C)c3)[C@H]3[C@@H](S(=O)(=O)Oc4ccccc4F)C[C@@H]2[S+]3[O-])ccc1O (relative stereo)

>  <System>
UniProt P03372

>  <Measured Result>
1.3 µM

$$$$
>  <Molecule>
Cc1cc(C2=C(c3ccc(O)c(C)c3)[C@H]3[C@@H](S(=O)(=O)Oc4ccccc4)C[C@@H]2[S+]3[O-])ccc1O (relative stereo)

>  <System>
UniProt P03372

>  <Measured Result>
0.012 µM

$$$$
>  <Molecule>
COc1ccc(OS(=O)(=O)[C@H]2C[C@H]3C(c4ccc(O)c(C)c4)=C(c4ccc(O)c(C)c4)[C@@H]2[S+]3[O-])cc1 (relative stereo)

>  <System>
UniProt P03372

>  <Measured Result>
11 µM

$$$$
>  <Molecule>
O=S(=O)(Oc1ccccc1)[C@H]1C[C@H]2C(c3ccc(O)cc3)=C(c3ccc(O)cc3)[C@@H]1[S+]2[O-] (relative stereo)

>  <System>
UniProt P03372

>  <Measured Result>
0.67 µM

$$$$
>  <Molecule>
Cc1cc(O)ccc1C1=C(c2ccc(O)cc2C)[C@H]2[C@@H](S(=O)(=O)Oc3ccc(F)cc3)C[C@@H]1[S+]2[O-] (relative stereo)

>  <System>
UniProt P03372

>  <Measured Result>
0.2 µM

$$$$

###

System: Estrogen receptor beta (Homo sapiens, UniProt Q92731)
Sequence (Q92731 whole entry): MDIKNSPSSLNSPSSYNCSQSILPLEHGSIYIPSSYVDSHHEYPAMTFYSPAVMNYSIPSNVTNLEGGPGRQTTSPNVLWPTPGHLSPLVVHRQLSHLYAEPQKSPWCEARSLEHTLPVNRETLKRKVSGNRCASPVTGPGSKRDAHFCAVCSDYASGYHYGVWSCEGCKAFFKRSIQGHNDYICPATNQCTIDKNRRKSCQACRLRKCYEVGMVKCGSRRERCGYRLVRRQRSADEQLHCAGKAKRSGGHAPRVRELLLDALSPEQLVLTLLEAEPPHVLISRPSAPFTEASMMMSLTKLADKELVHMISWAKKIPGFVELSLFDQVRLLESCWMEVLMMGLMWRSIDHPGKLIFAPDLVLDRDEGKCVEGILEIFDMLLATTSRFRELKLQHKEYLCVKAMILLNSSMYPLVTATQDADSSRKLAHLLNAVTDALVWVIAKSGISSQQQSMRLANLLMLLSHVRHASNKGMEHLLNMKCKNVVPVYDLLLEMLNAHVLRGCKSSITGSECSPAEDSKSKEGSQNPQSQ
Protocol Text: Agonist activity at human ERbeta expressed in HepG2 cells up to 10^-5 M after 24 hrs by luciferase reporter gene assay relative to E2
Assay type: functional, cell-based

>  <Molecule>
Cc1cc(O)ccc1C1=C(c2ccc(O)cc2C)[C@H]2[C@@H](S(=O)(=O)Oc3ccccc3Cl)C[C@@H]1[S+]2[O-] (relative stereo)

>  <Unit>
%

>  <Activity>
46

$$$$
>  <Molecule>
Cc1cc(O)ccc1C1=C(c2ccc(O)cc2C)[C@H]2[C@@H](S(=O)(=O)Oc3ccccc3F)C[C@@H]1[S+]2[O-] (relative stereo)

>  <Unit>
%

>  <Activity>
54

$$$$
>  <Molecule>
Cc1cc(C2=C(c3ccc(O)c(C)c3)[C@H]3[C@H]4C(=O)N(c5ccccc5)C(=O)[C@H]4[C@@H]2[S+]3[O-])ccc1O (mixture of isomers)

>  <Unit>
%

>  <Activity>
3.4

$$$$

###

System: UniProt Q92731
Protocol Text: Displacement of [3H]estradiol from human ERbeta after 18 to 24 hrs
Parameter: RBA (%)

>  <Compound>
Cc1cc(C2=C(c3ccc(O)c(C)c3)[C@H]3[C@@H](S(=O)(=O)Oc4ccccc4)C[C@@H]2[S+]3[O-])ccc1O (relative stereo)

>  <Parameter>
RBA

>  <Measured Result>
0.014

$$$$
>  <Compound>
Cc1cc(O)ccc1C1=C(c2ccc(O)cc2C)[C@H]2[C@@H](S(=O)(=O)Oc3ccc(Cl)cc3)C[C@@H]1[S+]2[O-] (relative stereo)

>  <Parameter>
RBA

>  <Measured Result>
0.083

$$$$
>  <Compound>
Cc1cc(C2=C(c3ccc(O)c(C)c3)[C@H]3[C@@H](S(=O)(=O)Oc4ccccc4Cl)C[C@@H]2[S+]3[O-])ccc1O (relative stereo)

>  <Parameter>
RBA

>  <Measured Result>
0.022

$$$$

###

Reported pEC50 values for a set of compounds
System: UniProt P03372
pEC50: −log10 of the molar value.

>  <Compound>
Cc1cc(O)ccc1C1=C(c2ccc(O)cc2C)[C@H]2[C@@H](S(=O)(=O)Oc3cccc4ccccc34)C[C@@H]1[S+]2[O-] (relative stereo)

>  <pEC50>
7.57

$$$$
>  <Compound>
O=S(=O)(Oc1ccc(O)cc1)[C@H]1C[C@H]2C(c3ccc(O)cc3)=C(c3ccc(O)cc3)[C@@H]1[S+]2[O-] (relative stereo)

>  <pEC50>
5.96

$$$$
>  <Compound>
Cc1cc(C2=C(c3ccc(O)c(C)c3)[C@H]3[C@@H](S(=O)(=O)Oc4ccccc4Br)C[C@@H]2[S+]3[O-])ccc1O (relative stereo)

>  <pEC50>
5.92

$$$$
